Target: Solute carrier organic anion transporter family member 1B1 (Homo sapiens, UniProt Q9Y6L6)
Settings: chinese hamster, cho, 10 µM
Exercise: state measured residual activity for each of the compounds provided.
Express it in %; write the number only.

Exercise: State measured residual activity of the compound CO[C@H]1C[C@H](O[C@H]2CC[C@]3(C=O)[C@H]4CC[C@]5(C)[C@@H](C6=CC(=O)OC6)CC[C@]5(O)[C@@H]4CC[C@]3(O)C2)O[C@H](C)[C@H]1O with Solute carrier organic anion transporter family member 1B1 (Homo sapiens, UniProt Q9Y6L6).
Key: 87.74

Exercise: State measured residual activity of the compound O=C(O[C@@H]1Cc2c(O)cc(O)cc2O[C@@H]1c1cc(O)c(O)c(O)c1-c1c([C@H]2Oc3cc(O)cc(O)c3C[C@H]2O)cc(O)c(O)c1O)c1cc(O)c(O)c(O)c1 [2',2'-BISEPIGALLOCATECHIN MONOGALLATE] with Solute carrier organic anion transporter family member 1B1 (Homo sapiens, UniProt Q9Y6L6).
Key: 31.07

Exercise: State measured residual activity of the compound O=C(OCC(O)CO)c1ccccc1Nc1ccnc2cc(Cl)ccc12 (centres undefined) with Solute carrier organic anion transporter family member 1B1 (Homo sapiens, UniProt Q9Y6L6).
Key: 188.5

Exercise: State measured residual activity of the compound CC(C)=CCOc1cc2oc(=O)ccc2cc1O with Solute carrier organic anion transporter family member 1B1 (Homo sapiens, UniProt Q9Y6L6).
Key: 176.8

Exercise: State measured residual activity of the compound COc1ccc(C(=O)c2ccccc2)c(O)c1 with Solute carrier organic anion transporter family member 1B1 (Homo sapiens, UniProt Q9Y6L6).
Key: 225.4

Exercise: State measured residual activity of the compound CC(C)(Oc1ccc(Cl)cc1)C(=O)O with Solute carrier organic anion transporter family member 1B1 (Homo sapiens, UniProt Q9Y6L6).
Key: 111.2

Exercise: State measured residual activity of the compound NCC(CC(=O)O)c1ccc(Cl)cc1 (centres undefined) with Solute carrier organic anion transporter family member 1B1 (Homo sapiens, UniProt Q9Y6L6).
Key: 80.8

Exercise: State measured residual activity of the compound NCCC(=O)c1ccccc1N with Solute carrier organic anion transporter family member 1B1 (Homo sapiens, UniProt Q9Y6L6).
Key: 113.9

Exercise: State measured residual activity of the compound CC(C)(C#N)O[C@@H]1O[C@H](CO)[C@@H](O)[C@H](O)[C@H]1O with Solute carrier organic anion transporter family member 1B1 (Homo sapiens, UniProt Q9Y6L6).
Key: 131.3

Exercise: State measured residual activity of the compound COC(=O)c1c(Cl)c(Cl)c(C(=O)OC)c(Cl)c1Cl with Solute carrier organic anion transporter family member 1B1 (Homo sapiens, UniProt Q9Y6L6).
Key: 103.5

Exercise: State measured residual activity of the compound C[C@@H]1CC[C@H]2C(C)(C)[C@H]3C[C@@]12CC[C@@]3(C)O with Solute carrier organic anion transporter family member 1B1 (Homo sapiens, UniProt Q9Y6L6).
Key: 119.8

Exercise: State measured residual activity of the compound O=c1c(O)c(-c2ccccc2)oc2cc(O)ccc12 [3,7-DIHYDROXYFLAVONE] with Solute carrier organic anion transporter family member 1B1 (Homo sapiens, UniProt Q9Y6L6).
Key: 151.5

Exercise: State measured residual activity of the compound Cl.N=C(N)NC(=N)Nc1ccccc1 [1-PHENYLBIGUANIDE HYDROCHLORIDE] with Solute carrier organic anion transporter family member 1B1 (Homo sapiens, UniProt Q9Y6L6).
Key: 80.12

Exercise: State measured residual activity of the compound C=C(C)[C@H]1Cc2c(ccc3c2O[C@@H]2COc4cc(OC)c(OC)cc4[C@@H]2C3=O)O1 with Solute carrier organic anion transporter family member 1B1 (Homo sapiens, UniProt Q9Y6L6).
Key: 23.22

Exercise: State measured residual activity of the compound NCCc1ccc(O)cc1 with Solute carrier organic anion transporter family member 1B1 (Homo sapiens, UniProt Q9Y6L6).
Key: 59.9

Exercise: State measured residual activity of the compound CC[C@]12CCCN3CCc4c(n(c5ccccc45)C(=O)C1)[C@@H]32 with Solute carrier organic anion transporter family member 1B1 (Homo sapiens, UniProt Q9Y6L6).
Key: 97.38

Exercise: State measured residual activity of the compound C[C@H](N)CO with Solute carrier organic anion transporter family member 1B1 (Homo sapiens, UniProt Q9Y6L6).
Key: 73.39

Exercise: State measured residual activity of the compound COc1ccc(OC)c(C(O)CNC(=O)CN)c1.Cl (centres undefined) [MIDODRINE HYDROCHLORIDE] with Solute carrier organic anion transporter family member 1B1 (Homo sapiens, UniProt Q9Y6L6).
Key: 101.7

Exercise: State measured residual activity of the compound N=C(N)NCCCCN.O=S(=O)(O)O [AGMATINE SULFATE] with Solute carrier organic anion transporter family member 1B1 (Homo sapiens, UniProt Q9Y6L6).
Key: 111.9

---

Target: UniProt:Q9Y6L6
Details: chinese hamster, cho, 10 µM
Tag: t if measured residual activity is not below 60%, f if it is.

Exercise: Determine whether measured residual activity meets or exceeds 60% for CCC(=O)O[C@H]1[C@H](O[C@@H]2[C@@H](C)[C@H](O[C@H]3C[C@@](C)(OC)[C@@H](O)[C@H](C)O3)[C@@H](C)C(=O)O[C@H](CC)[C@@](C)(O)[C@H](O)[C@@H](C)C(=O)[C@H](C)C[C@@]2(C)O)O[C@H](C)C[C@@H]1N(C)C.CCCCCCCCCCCCOS(=O)(=O)O [ERYTHROMYCIN ESTOLATE]
Key: f

Exercise: Determine whether measured residual activity meets or exceeds 60% for CC[C@@H](C)C(=O)O[C@H]1[C@H](O)[C@H]2[C@@H](CN3C[C@@H](C)CC[C@H]3[C@@]2(C)O)[C@@H]2C[C@]34O[C@]5(O)[C@@H](OC(=O)[C@@](C)(O)CC)CC[C@@]3(C)[C@@H]5[C@@H](OC(C)=O)[C@@H](OC(C)=O)[C@H]4[C@@]21O
Key: t

Exercise: Determine whether measured residual activity meets or exceeds 60% for Br.COc1c2c(cc3c1OCO3)CCN(C)C2 [HYDROCOTARNINE HYDROBROMIDE]
Key: t

Exercise: Determine whether measured residual activity meets or exceeds 60% for O=C1C[C@@H](c2ccc(O)cc2)Oc2cc(O)cc(O)c21
Key: t

---

Target: Solute carrier organic anion transporter family member 1B3 (Homo sapiens)
Sequence (Q9NPD5 whole entry): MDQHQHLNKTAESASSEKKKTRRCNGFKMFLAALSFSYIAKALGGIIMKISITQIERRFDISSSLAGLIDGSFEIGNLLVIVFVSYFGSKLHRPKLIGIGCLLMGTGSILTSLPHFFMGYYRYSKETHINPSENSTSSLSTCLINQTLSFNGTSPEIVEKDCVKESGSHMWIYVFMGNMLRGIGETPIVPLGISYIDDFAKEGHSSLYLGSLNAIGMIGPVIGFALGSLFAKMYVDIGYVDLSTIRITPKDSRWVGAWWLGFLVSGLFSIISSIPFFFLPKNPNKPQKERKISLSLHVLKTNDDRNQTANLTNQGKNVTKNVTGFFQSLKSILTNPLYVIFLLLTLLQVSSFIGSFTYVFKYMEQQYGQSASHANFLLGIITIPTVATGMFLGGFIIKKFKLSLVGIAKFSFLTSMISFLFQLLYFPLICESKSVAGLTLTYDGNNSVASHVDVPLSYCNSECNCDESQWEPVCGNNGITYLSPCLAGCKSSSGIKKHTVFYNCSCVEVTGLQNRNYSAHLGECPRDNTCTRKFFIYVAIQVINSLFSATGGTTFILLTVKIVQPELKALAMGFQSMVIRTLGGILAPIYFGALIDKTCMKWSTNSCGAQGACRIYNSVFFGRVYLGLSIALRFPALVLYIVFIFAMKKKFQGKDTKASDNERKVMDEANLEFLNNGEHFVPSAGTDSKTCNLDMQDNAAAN
Conditions: chinese hamster, cho, 10 µM
Lab note: anything with residual activity below 90% is marked yes; values at 90% or higher are marked no.

Exercise: Find out if reported residual activity for COc1cc2c(cc1OC)-c1cc3ccc(OC)c(OC)c3c[n+]1CC2 is less than 90%
Key: no

Exercise: Find out if reported residual activity for CO[C@H]1/C=C/O[C@@]2(C)Oc3c(C)c(O)c4c(O)c(c(/C=N/N5CCN(C)CC5)c(O)c4c3C2=O)NC(=O)/C(C)=C\C=C\[C@H](C)[C@H](O)[C@@H](C)[C@@H](O)[C@@H](C)[C@H](OC(C)=O)[C@@H]1C is less than 90%
Key: yes

Exercise: Find out if reported residual activity for C[C@H](N)[C@H](O)c1ccccc1 is less than 90%
Key: yes

Exercise: Find out if reported residual activity for Cc1c(O)c(C(=O)CC(C)C)c2oc3c(C(=O)CC(C)C)c(O)c(C)c(O)c3c2c1O is less than 90%
Key: yes

Exercise: Find out if reported residual activity for Cc1cccc(CN2CCN(C(c3ccccc3)c3ccc(Cl)cc3)CC2)c1.Cl.O (configuration not stated) is less than 90%
Key: yes

---

Target: Solute carrier organic anion transporter family member 1B1 (Homo sapiens)
Sequence (Q9Y6L6 whole entry): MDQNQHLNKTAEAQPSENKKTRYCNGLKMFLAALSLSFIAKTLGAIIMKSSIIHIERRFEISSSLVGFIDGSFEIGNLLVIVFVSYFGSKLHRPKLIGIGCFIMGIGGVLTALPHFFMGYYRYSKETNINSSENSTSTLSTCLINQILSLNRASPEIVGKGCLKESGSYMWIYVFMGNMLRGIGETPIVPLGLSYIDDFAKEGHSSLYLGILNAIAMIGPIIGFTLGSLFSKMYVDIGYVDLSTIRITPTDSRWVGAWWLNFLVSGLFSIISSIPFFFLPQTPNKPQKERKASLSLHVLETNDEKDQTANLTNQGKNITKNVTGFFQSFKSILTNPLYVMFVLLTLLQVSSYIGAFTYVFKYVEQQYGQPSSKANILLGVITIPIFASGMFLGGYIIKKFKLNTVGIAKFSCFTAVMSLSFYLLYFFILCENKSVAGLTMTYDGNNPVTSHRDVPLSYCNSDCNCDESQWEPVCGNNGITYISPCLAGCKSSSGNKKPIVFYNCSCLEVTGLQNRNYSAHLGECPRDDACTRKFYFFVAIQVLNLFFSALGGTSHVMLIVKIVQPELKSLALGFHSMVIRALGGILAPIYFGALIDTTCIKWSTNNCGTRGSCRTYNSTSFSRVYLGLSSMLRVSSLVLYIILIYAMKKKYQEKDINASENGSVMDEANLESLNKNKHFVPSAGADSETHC
Exercise: state measured pKi for each of the compounds provided.
In plain terms, pKi is the concentration in mol/L turned into minus its base-10 logarithm.

Exercise: Provide measured pKi value, entry: C[C@H]1CC[C@@]2(OC1)O[C@H]1C[C@H]3[C@@H]4CC[C@@H]5C[C@@H](O)CC[C@]5(C)[C@H]4CC[C@]3(C)[C@H]1[C@@H]2C
Key: 6.89

Exercise: Provide measured pKi value, entry: CCC(=O)O[C@H]1[C@H](O[C@@H]2[C@@H](C)[C@H](O[C@H]3C[C@@](C)(OC)[C@@H](O)[C@H](C)O3)[C@@H](C)C(=O)O[C@H](CC)[C@@](C)(O)[C@H](O)[C@@H](C)C(=O)[C@H](C)C[C@@]2(C)O)O[C@H](C)C[C@@H]1N(C)C.CCCCCCCCCCCCOS(=O)(=O)O [ERYTHROMYCIN ESTOLATE]
Key: 5.62

meta.source: ChEMBL document CHEMBL3039007
